Source of measurements: ChEMBL document CHEMBL6087385

Test summary: AUC (0 to infinity) in Cynomolgus monkey at 1 mg/kg, iv by reverse phase chromatography
Format: ADME, organism-based, Macaca fascicularis
Test settings: in vivo
Property name: AUC(0-inf) (ng·h/mL)
One number for each entry, in ng·h/mL.

Entry under review: C[C@@]1(O)[C@H](O)[C@@H](CO)O[C@H]1c1coc2c(N)ncnc12 . Reported AUC(0-inf)?
2340

* * *

Test summary: AUC (0 to infinity) in Sprague-Dawley rat at 1 mg/kg, iv by reverse phase chromatography
Type: ADME, organism-based
Test settings: in vivo
Property name: AUC(0-inf)
Mention the unit after the number when you answer.

Entry under review: C[C@@]1(O)[C@H](O)[C@@H](CO)O[C@H]1c1coc2c(N)ncnc12 . Reported AUC(0-inf)?
947 ng·h/mL

* * *

Test summary: Cmax in female mouse at 1 mg/kg, iv by reverse phase chromatography
Format: ADME, organism-based
Test settings: in vivo
Property name: Cmax (ng/mL)
Give bare numbers, in ng/mL.

Entry under review: C[C@@]1(O)[C@H](O)[C@@H](CO)O[C@H]1c1coc2c(N)ncnc12 . Reported Cmax?
1130

* * *

Test summary: AUC (0 to infinity) in Sprague-Dawley rat at 5 mg/kg, po by reverse phase chromatography
Type: ADME, organism-based
Test settings: in vivo
Property name: AUC(0-inf) (ng·h/mL)
Give bare numbers, in ng·h/mL.

Entry under review: C[C@@]1(O)[C@H](O)[C@@H](CO)O[C@H]1c1coc2c(N)ncnc12 . Reported AUC(0-inf)?
2150

* * *

Test summary: Cmax in Sprague-Dawley rat at 5 mg/kg, po by reverse phase chromatography
Assay type: ADME, organism-based
Test settings: in vivo
Property name: Cmax (ng/mL)
Answers are plain numbers, in ng/mL.

Entry under review: C[C@@]1(O)[C@H](O)[C@@H](CO)O[C@H]1c1coc2c(N)ncnc12 . Reported Cmax?
593

* * *

Test summary: Half life in Cynomolgus monkey at 10 mg/kg, po administered for 7 days by reverse phase chromatography
Assay type: ADME, organism-based, Macaca fascicularis
Test settings: in vivo, time 7 day
Property name: half-life (h)
Give bare numbers, in h.

Entry under review: C[C@@]1(O)[C@H](O)[C@@H](CO)O[C@H]1c1coc2c(N)ncnc12 . Reported half-life?
26.3

* * *

System: Hepatitis C virus
Test summary: Antiviral activity against Hepatitis C virus infected in Ava5 cells assessed as inhibition of viral RNA replication incubated for 72 hrs by RT-PCR analysis
Type: functional, organism-based, Hepacivirus hominis
Test settings: Ava5, 72 h
Property name: EC50

Entry under review: C[C@@]1(O)[C@H](O)[C@@H](CO)O[C@H]1c1coc2c(N)ncnc12 . Reported EC50?
6.5 µM

* * *

Test summary: Metabolic stability in rat liver microsome assessed as half life in presence of NADPH
Format: ADME
Test settings: liver microsomes
Property name: half-life

Entry under review: C[C@@]1(O)[C@H](O)[C@@H](CO)O[C@H]1c1coc2c(N)ncnc12 . Reported half-life?
> 1.67 h

* * *

Test summary: Tmax in Cynomolgus monkey at 1 mg/kg, iv by reverse phase chromatography
Type: ADME, organism-based, Macaca fascicularis
Test settings: in vivo
Property name: Tmax (min)
One number for each entry, in min.

Entry under review: C[C@@]1(O)[C@H](O)[C@@H](CO)O[C@H]1c1coc2c(N)ncnc12 . Reported Tmax?
1.8
